Consider compounds characterized by their Ki with human 5-HT7 receptor (Homo sapiens (Human), UniProt P34969).
Sequence (P34969 whole entry): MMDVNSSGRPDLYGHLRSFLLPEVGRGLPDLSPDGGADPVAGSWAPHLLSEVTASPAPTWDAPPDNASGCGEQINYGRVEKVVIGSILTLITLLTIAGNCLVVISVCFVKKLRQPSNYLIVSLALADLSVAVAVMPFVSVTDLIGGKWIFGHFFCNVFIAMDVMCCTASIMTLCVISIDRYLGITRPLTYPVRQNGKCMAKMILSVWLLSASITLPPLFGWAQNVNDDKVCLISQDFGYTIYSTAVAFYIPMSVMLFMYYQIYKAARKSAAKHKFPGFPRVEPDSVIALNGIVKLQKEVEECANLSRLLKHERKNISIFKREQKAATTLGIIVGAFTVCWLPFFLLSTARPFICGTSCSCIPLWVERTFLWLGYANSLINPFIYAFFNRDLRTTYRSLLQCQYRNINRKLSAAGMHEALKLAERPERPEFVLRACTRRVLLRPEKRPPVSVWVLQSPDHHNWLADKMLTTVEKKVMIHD
measuredEndpoint: Ki (nM)

Form field, Ki with human 5-HT7 receptor (Homo sapiens (Human), UniProt P34969), item CCCN(CCN1CCC(c2noc3cc(F)ccc23)CC1)C(=O)C(C)O (stereo not drawn) [Example 39] : 0.7

Form field, Ki with human 5-HT7 receptor (Homo sapiens (Human), UniProt P34969), item CCN(CCN1CCC(c2noc3cc(F)ccc23)CC1)C(=O)C1CCCCC1O (stereo not drawn) [Example 33] : 1.6

Form field, Ki with human 5-HT7 receptor (Homo sapiens (Human), UniProt P34969), item CC[C@@H](O)C(=O)N(CC)CCN1CCC(c2noc3cc(F)ccc23)CC1 [Example 29] : 2.6

Form field, Ki with human 5-HT7 receptor (Homo sapiens (Human), UniProt P34969), item CCN(CCN1CCC(c2noc3cc(F)ccc23)CC1)C(=O)C(O)C(C)C (stereo not drawn) [Example 8] : 6.2

Form field, Ki with human 5-HT7 receptor (Homo sapiens (Human), UniProt P34969), item CCN(CCN1CCC(c2noc3cc(F)ccc23)CC1)C(=O)C(O)COC (stereo not drawn) [Example 18] : 3.7

I = CCN(CCN1CCC(c2noc3cc(F)ccc23)CC1)C(=O)C(O)C(F)(F)F (stereo not drawn) [Example 34]
II = CCN(CCN1CCC(c2noc3cc(F)ccc23)CC1)S(=O)(=O)CCO [Example 51]
Determine, for I and II , which has the greater value of Ki. Which one? Tell me its label.
I
